Target: T1, Human B7-H4-Fc (Human B7H4 ECD, Fc_6His) (human)
T1 construct: also called FcHis6 tagged human B7-H4
T1 sequence (Q7Z7D3 whole entry, looked up): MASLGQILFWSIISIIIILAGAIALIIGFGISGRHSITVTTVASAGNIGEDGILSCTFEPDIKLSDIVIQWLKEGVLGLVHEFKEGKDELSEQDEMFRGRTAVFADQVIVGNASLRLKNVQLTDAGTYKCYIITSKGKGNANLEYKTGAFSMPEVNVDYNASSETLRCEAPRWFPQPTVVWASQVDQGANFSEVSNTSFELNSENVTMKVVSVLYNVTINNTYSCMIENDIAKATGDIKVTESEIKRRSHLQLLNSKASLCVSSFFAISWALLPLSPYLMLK
Test: HTRF binding, human IgG1
Entries and their Max
readout: Max

- binder: "ZY0EOB-F05 human IgG1 (antibody, V domains shown) VH: QVQLQESGPGLVKPSQTLSLTCTVSDGSISSGGYYWSWIRQHPGKGLEWIGNIYYSGSTYYNPSLKSRVTISVDTSKNQFSLKLNSVTAADTAVYYCATEKALATVTPSGYENYYTVDVWGQGTTVTVSS VL: DIQLTQSPSFLSASVGDRVTITCWASQGISSYLAWYQQKPGKAPKLLIYAASTLQSGVPSRFSGSGSGTEFTLTISSLQPEDFATYYCQHLNSYPLTFGGGTKVEIK"
  readout: "Max"
  test.value: 1820
- binder: "ZY0EO5-E07 human IgG1 (antibody, V domains shown, also called ZY0E05-E07; E05-E07) VH: QVQLQESGPGLVKPSQTLSLTCTVSGGSISSGGYYWSWIRQHPGKGLEWIGNIYYSGSTYYNPSLKSRVTISVDTSKNQFSLKLSSVTAADTAVYYCAREKALASVIPSGYENYYVVDVWGQGTTVTVSS VL: DIQLTQSPSFLSASVGGRVTITCWASQGIAGYLAWYQQKPGKAPKLLIYAASTLQSGVPSRFSGSGSGTEFTLTISSLQPEDFATYYCQHLNSYPLTFGGGTKVEIK"
  readout: "Max"
  test.value: 1710
- binder: "ZY0EP0-C07 human IgG1 (antibody, V domains shown, also called ZY0EPO-C07) VH: QVQLVESGGVLVKPGGSLRLSCAASGFTLSDYYMSWIRQAPGMGLEWVSYISSSGSTIYYTDSVKGRFTISRDSAKNSLYLQMNSLRAEDTAVYYCARDGVGFDYWGQGTLVTVSS VL: EIVLTQSPGTLSLFPGERATLSCRASQSVSSSYLAWYQQKPGQSPRLLIYAASSRATGIPDRFSGSGSGTDFTLTISRLEPEDFAVYYCQQYGSSPLYTFGQGTKLEIK"
  readout: "Max"
  test.value: 1220
- binder: "ZY0EQD-E02 human IgG1 (antibody, V domains shown) VH: QVQLQQWGAGLLKPSETLSLTCAVYGGSFSGYYWNWIRQPPGKGLEWIGEINHSGSTSYNPSLKSRVTISVDTSKNQFSLKLSSVTAADTAVYYCARVLYNWNVDSWGQGTLVTVSS VL: DIQMTQSPSSLSASVGDRVTITCRASQDIRNDVGWYQQKPGKAPKRLIYAASRLQSGVPSRFSGSGSGTEFTLTISSLQPEDFATYYCLQHNSYPRTFGQGTKVEIK"
  readout: "Max"
  test.value: 1240
- binder: "ZY0EPQ-E02 human IgG1 (antibody, V domains shown) VH: QVQLQQWGAGLLKPSETLSLTCAVYGGSFSGYYWNWIRQPPGKGLEWIGEINHSGSTNYNPSLKSRVTILVDTSKNQFSLKLSSVTAADTAVYYCARNLYNWNLDSWGQGTLVTVSS VL: DIQMTQSPSSLSASVGDRVTITCRASQGIRNDLGWYQQKPGRAPKRLIYVASSLQSGVPSRFSGSGSGTEFTLTISSLQPEDFATYYCLQHNSYPRTFGQGTKVEIK"
  readout: "Max"
  test.value: 1130
